- Test system: Zika virus NS2B-NS3 protease (unlinked complex)
- protocol_text: Primary screen GU Rhodamine qHTS for Zika virus inhibitors: Unlinked NS2B-NS3 protease assay (AID 1347159); further: nearly all actives have a fitted effect of over 60% in size
- condition_set: Recombinant ZIKV NS2B-NS3 protease, Rhodamine110 substrate fluorescence; series mostly up to 107 µM
Records with an inconclusive call do not appear. The source made the active and inactive calls. The call rests on the fitted dose curve; in most records, active means well fitted inhibition curve with a large enough effect; inconclusive means small, poorly fitted or top-dose-only effect; inactive means no such curve, though single readings can be large or run the other way.
Give your call using only these classes: active, inactive

Some solved cases for reference:
Cc1cc(SCc2sc(-c3ccc(C(F)(F)F)cc3)nc2C)ccc1OCC(=O)O | active
CCCc1nn(C)c2c(=O)[nH]c(-c3cc(S(=O)(=O)N4CCN(C)CC4)ccc3OCC)nc12 | inactive

# fetch the recorded call for `COc1cc2c(cc1OC)CN(CCc1ccc(NC(=O)c3cccc4c(=O)c5cccc(OC)c5[nH]c34)cc1)CC2` here
active

# fetch the recorded call for `CNC(=O)c1ccc(C)c(-n2c(C)cc(OCc3ccc(F)cc3F)c(Br)c2=O)c1` here
inactive

# fetch the recorded call for `CCCS(=O)(=O)Nc1ccc(F)c(C(=O)c2c[nH]c3ncc(Cl)cc23)c1F` here
inactive

# fetch the recorded call for `CC1(C)CNc2cc(NC(=O)c3cccnc3NCc3ccncc3)ccc21` here
inactive

* * *

- protocol_text: Quantitative High-Throughput drug screen in 47 multiple myeloma cell lines against the NCATS MIPE library collection: KMS26_JCRB cell viability assay (AID 1918975); further: nearly all actives have a fitted effect of over 45% in size; further: potency means the concentration at half of the fitted maximal effect
- condition_set: KMS26 myeloma cells viability, CellTiter-Glo ATP, 48 h; series mostly up to 45.8 µM
Results filed as inconclusive are left out. Calls of active or inactive are those of the source. The call rests on the fitted dose curve; in most records, active means well fitted cell-killing curve with a large enough effect; inconclusive means small, poorly fitted or top-dose-only effect, or effect the other way; inactive means no such curve, though single readings can be large or run the other way.
measure: Potency

Some entries whose results are on file:
Cc1c(CN2CCN(C(=O)C(C)C)CC2)sc2c(N3CCOCC3)nc(-c3cnc(N)nc3)nc12 | 0.264 µM (active)
CC(C=CC1=C(C)CCCC1(C)C)=CC=CC(C)=CC(=O)O | inactive
c1ccc(-c2nn3c(c2-c2ccnc4cc(OCCN5CCOCC5)ccc24)CCC3)nc1 | inactive
CO[C@@H]1[C@H](N(C)C(=O)c2ccccc2)C[C@H]2O[C@]1(C)n1c3ccccc3c3c4c(c5c6ccccc6n2c5c31)C(=O)NC4 | 3.72 µM (active)

Reported Potency of `COc1ccc(-c2oc3cc(OC)ccc3c2C(=O)c2ccc(C#N)cc2)cc1` : inactive

Reported Potency of `COc1c(Cl)cc2c([nH]c3cnccc32)c1NC(=O)c1cccnc1C` : 13.2 µM (active)

Reported Potency of `CCCCNc1cc(C(=O)O)cc(S(N)(=O)=O)c1Oc1ccccc1` : inactive

Reported Potency of `CCOC(=O)N1CCC(=C2c3ccc(Cl)cc3CCc3cccnc32)CC1` : 18.7 µM (active)

Reported Potency of `CCCC(CCC)C(=O)O` : inactive

Reported Potency of `COCCNCCCn1c(C(=O)CF)c(-c2ccc(C)cc2)c2c(N)ncnc21` : inactive

Reported Potency of CN(C)c1ccc(C2Nc3ccc4ccccc4c3C3=C2C(=O)CC(C)(C)C3)cc1Br (stereo not drawn) : 16.6 µM (active)

Reported Potency of `Cc1oncc1C(=O)Nc1ccc(C(F)(F)F)cc1` : inactive

Reported Potency of OC(CN1CCC(Cc2ccc(F)cc2)CC1)c1ccc(Cl)cc1 (stereo not drawn) : inactive

* * *

- protocol_text: Quantitative High-Throughput drug screen in 47 multiple myeloma cell lines against the NCATS MIPE library collection: KMS12BM_JCRB cell viability assay (AID 1918971); further: nearly all actives have a fitted effect of over 35% in size
- condition_set: KMS12BM myeloma viability, CellTiter-Glo ATP, 48 h; series mostly up to 45.8 µM
Records with an inconclusive call do not appear. Active and inactive are the calls of the source. Calls follow the shape of the dose curve; as a rule, active = well fitted cell-killing curve with a large enough effect; inconclusive = small, poorly fitted or top-dose-only effect, or effect the other way; inactive = no such curve, though single readings can be large or run the other way.
Give your call using only these classes: active, inactive

Some solved cases for reference:
COc1ccc(-c2ccc3c(N4CCOC[C@H]4C)nc(N4CCOC[C@H]4C)nc3n2)cc1CO | active
COc1ccc(-c2c(-c3ccc(O)cc3O)n[nH]c2C)cc1 | active
CC[C@@H](C)[C@H](NC(=O)[C@H](CC1CCCCC1)NC(=O)c1ccno1)C(=O)N1CCC2(CCc3ccccc32)CC1 | active
N#CC[C@H](C1CCCC1)n1cc(-c2ncnc3[nH]ccc23)cn1 | active

# fetch the recorded call for `CCN(c1ccccc1)c1cc(NC)[n+](C)c(C)n1` here
active

# fetch the recorded call for `CCOC(=O)N1CCC(=C2c3ccc(Cl)cc3CCc3cccnc32)CC1` here
active

# fetch the recorded call for CC(=O)NC(C)c1ccc(Oc2ccc(OC(C)C)cc2)cc1 (configuration not stated) here
active

# fetch the recorded call for `COc1ccc(C2=N[C@H](c3ccc(Cl)cc3)[C@H](c3ccc(Cl)cc3)N2C(=O)N2CCNC(=O)C2)c(OC(C)C)c1` here
active

# fetch the recorded call for `COc1ccc2c3n(c(=NC(=O)c4cccnc4)nc2c1OC)CCN3` here
inactive

* * *

- protocol_text: Primary qHTS for inhibitors of nuclear receptor binding SET domain protein 2 (NSD2) in an isogenic RCH-ACV NSD2 p.E1099K mutant (9B) (AID 1645876); further: nearly all actives have a fitted effect of over 70% in size
- condition_set: RCH-ACV (leukaemia line) NSD2 E1099K (9B) viability, CellTiter-Glo, 72 h; series mostly up to 44.9 µM
Inconclusive results are not listed. Calls of active or inactive are those of the source. Calls follow the shape of the dose curve; as a rule, active = well fitted inhibition curve with a large enough effect; inconclusive = small, poorly fitted or top-dose-only effect; inactive = flat fitted curve, though single readings scatter.
Give your call using only these classes: true = active, false = inactive

# fetch the recorded call for `CC(C)C[C@H](NC(=O)[C@@H](O)[C@H](N)Cc1ccccc1)C(=O)O` here
false

# fetch the recorded call for `CC(C)(Sc1ccc(CCN(CCCCC2CCCCC2)C(=O)NC2CCCCC2)cc1)C(=O)O` here
false

# fetch the recorded call for `COc1ccc2c3n(c(=NC(=O)c4cccnc4)nc2c1OC)CCN3` here
true

# fetch the recorded call for `OCCn1cc(-c2cnc3nnn(Cc4ccc5ncccc5c4)c3n2)cn1` here
false

# fetch the recorded call for `NNCCc1ccccc1` here
false

* * *

- protocol_text: Quantitative High-Throughput drug screen in 47 multiple myeloma cell lines against the NCATS MIPE library collection: KMS28BM_JCRB cell viability assay (AID 1919874); further: nearly all actives have a fitted effect of over 35% in size
- condition_set: CellTiter-Glo ATP, 48 h; series mostly up to 45.8 µM
Inconclusive results are not listed. Activity calls are given as the source filed them. The call rests on the fitted dose curve; in most records, active means well fitted cell-killing curve with a large enough effect; inconclusive means small, poorly fitted or top-dose-only effect, or effect the other way; inactive means no such curve, though single readings can be large or run the other way.
Give your call using only these classes: active, inactive

Some solved cases for reference:
COc1ccc([C@@H]2CC(=O)c3c(O)cc(O[C@@H]4O[C@H](CO[C@@H]5O[C@@H](C)[C@H](O)[C@@H](O)[C@@H]5O)[C@@H](O)[C@H](O)[C@@H]4O)cc3O2)cc1O | inactive
CCCc1nc2c(C)cc(-c3nc4ccccc4n3C)cc2n1Cc1ccc(-c2ccccc2C(=O)O)cc1 | inactive
O=c1[nH]c(-c2ccc(C(F)(F)F)cc2)nc2c1CSCC2 | inactive

# fetch the recorded call for `Cc1cnc(Nc2ccc(OCCN3CCCC3)cc2)nc1Nc1cccc(S(=O)(=O)NC(C)(C)C)c1` here
active

# fetch the recorded call for `Cc1cn[nH]c1` here
active

# fetch the recorded call for `COCC(=O)NCC=Cc1ccc2ncnc(Nc3ccc(Oc4ccc(C)nc4)c(C)c3)c2c1` here
active

# fetch the recorded call for `Clc1cccc(Cl)c1NC1=NCCN1` here
inactive

# fetch the recorded call for `NC(=O)c1ccc(I)c([N+](=O)[O-])c1` here
inactive

# fetch the recorded call for `Fc1ccc(Cl)cc1-c1nc(Nc2ccncc2)c2nccnc2n1` here
inactive

# fetch the recorded call for `CO[C@@H]1[C@H](N(C)C(=O)c2ccccc2)C[C@H]2O[C@]1(C)n1c3ccccc3c3c4c(c5c6ccccc6n2c5c31)C(=O)NC4` here
active

# fetch the recorded call for `CCCC(CCC)C(=O)O` here
inactive

* * *

- protocol_text: Quantitative High-Throughput drug screen in 47 multiple myeloma cell lines against the NCATS MIPE library collection: NCIH929_DSMZ cell viability assay (AID 1918978); further: nearly all actives have a fitted effect of over 35% in size
- condition_set: NCI-H929 myeloma viability, CellTiter-Glo ATP, 48 h; series mostly up to 45.8 µM
Results filed as inconclusive are left out. Calls of active or inactive are those of the source. Calls come from the whole dose curve; as a rule, active = well fitted cell-killing curve with a large enough effect; inconclusive = small, poorly fitted or top-dose-only effect; inactive = no such curve, though single readings can be large or run the other way.
Give your call using only these classes: class 1 = active, class 0 = inactive

Some solved cases for reference:
Cc1cn[nH]c1 | class 1
Cc1ccc(N(CC2=NCCN2)c2cccc(O)c2)cc1 | class 0
COc1ccc(-c2c(-c3ccc(O)cc3O)n[nH]c2C)cc1 | class 1
CNC[C@H](O)c1cccc(O)c1 | class 0
CCC(C)N(C)C(=O)c1cc2ccccc2c(-c2ccccc2Cl)n1 (configuration not stated) | class 0

# fetch the recorded call for OC(CCN1CCCCC1)(c1ccccc1)C1CC2C=CC1C2 (configuration not stated) here
class 0

# fetch the recorded call for O=C1CCC(N2C(=O)c3ccccc3C2=O)C(=O)N1 (configuration not stated) here
class 0

# fetch the recorded call for `CCOC(=O)N1CCC(=C2c3ccc(Cl)cc3CCc3cccnc32)CC1` here
class 1

# fetch the recorded call for `COc1ccc(C2=N[C@H](c3ccc(Cl)cc3)[C@H](c3ccc(Cl)cc3)N2C(=O)N2CCNC(=O)C2)c(OC(C)C)c1` here
class 1

# fetch the recorded call for `OCCn1cc(-c2cnc3nnn(Cc4ccc5ncccc5c4)c3n2)cn1` here
class 0

# fetch the recorded call for `C#Cc1cccc(Nc2ncnc3cc(OCCOC)c(OCCOC)cc23)c1` here
class 1

# fetch the recorded call for `NNCCc1ccccc1` here
class 0

meta.source: PubChem BioAssay (NCATS)
